assay_target: F508delCFTR (Homo sapiens, UniProt P13569, DEL508-508)
Construct: expressed in transfected cells; host or cells: CFBE41o- human lung-derived epithelial cells (CFBE41o-F508delCFTR-HRP), doxycycline-inducible
Sequence (P13569 with tags, fused parts or gaps DEL508-508): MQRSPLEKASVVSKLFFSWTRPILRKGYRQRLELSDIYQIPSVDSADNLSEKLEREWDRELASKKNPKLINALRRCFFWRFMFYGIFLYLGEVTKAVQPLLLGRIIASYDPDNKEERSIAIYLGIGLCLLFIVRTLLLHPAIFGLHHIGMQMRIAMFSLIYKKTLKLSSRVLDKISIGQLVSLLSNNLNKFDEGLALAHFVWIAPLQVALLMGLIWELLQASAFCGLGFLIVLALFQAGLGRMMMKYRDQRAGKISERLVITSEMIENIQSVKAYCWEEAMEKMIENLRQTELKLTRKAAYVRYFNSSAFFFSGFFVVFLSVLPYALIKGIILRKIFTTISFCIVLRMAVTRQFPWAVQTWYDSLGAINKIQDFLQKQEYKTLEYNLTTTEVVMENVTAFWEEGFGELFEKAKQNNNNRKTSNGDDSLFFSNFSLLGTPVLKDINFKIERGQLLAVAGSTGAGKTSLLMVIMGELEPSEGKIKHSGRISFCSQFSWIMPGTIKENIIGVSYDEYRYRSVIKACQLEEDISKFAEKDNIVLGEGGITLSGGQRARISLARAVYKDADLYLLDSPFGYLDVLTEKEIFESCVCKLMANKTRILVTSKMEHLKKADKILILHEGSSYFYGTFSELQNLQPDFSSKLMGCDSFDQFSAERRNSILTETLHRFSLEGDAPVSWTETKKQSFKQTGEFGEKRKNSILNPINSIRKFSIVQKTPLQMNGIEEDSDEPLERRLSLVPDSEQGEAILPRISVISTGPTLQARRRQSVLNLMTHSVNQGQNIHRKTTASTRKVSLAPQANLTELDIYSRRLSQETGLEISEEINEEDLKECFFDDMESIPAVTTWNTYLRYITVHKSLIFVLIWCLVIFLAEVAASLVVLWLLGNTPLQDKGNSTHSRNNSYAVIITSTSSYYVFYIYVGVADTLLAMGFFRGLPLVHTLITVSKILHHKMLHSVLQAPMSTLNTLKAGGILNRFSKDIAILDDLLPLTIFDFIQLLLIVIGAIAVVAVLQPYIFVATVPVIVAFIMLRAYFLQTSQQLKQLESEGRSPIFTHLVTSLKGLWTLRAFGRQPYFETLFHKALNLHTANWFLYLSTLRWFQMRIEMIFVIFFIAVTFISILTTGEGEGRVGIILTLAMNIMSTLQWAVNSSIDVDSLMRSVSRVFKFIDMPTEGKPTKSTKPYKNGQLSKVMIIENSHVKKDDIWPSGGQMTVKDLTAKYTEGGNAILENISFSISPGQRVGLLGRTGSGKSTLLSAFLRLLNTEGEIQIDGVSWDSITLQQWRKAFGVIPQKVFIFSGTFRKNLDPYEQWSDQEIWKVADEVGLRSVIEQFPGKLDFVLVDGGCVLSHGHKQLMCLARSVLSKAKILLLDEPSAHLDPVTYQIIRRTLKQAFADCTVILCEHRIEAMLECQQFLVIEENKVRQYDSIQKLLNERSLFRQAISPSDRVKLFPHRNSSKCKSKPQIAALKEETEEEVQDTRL
assay_info: Cell Surface Expression-Horse Radish Peroxidase (CSE-HRP) assay, test compound without co-corrector
Format: cell-based
experimental_conditions: test compound without co-corrector
pEC50: −log10 of the molar value.
reported_metric: pEC50

compound="COc1cccc2c1CCC2C(=O)NS(=O)(=O)c1c(Cl)cccc1Cl (stereo not drawn) [III-76]" value="≤ 5.00"
compound="COc1ncc(Br)c2c1[C@H](C(=O)NS(=O)(=O)c1cccc3ccccc13)CCC2 [Example I-116]" value="> 5.52"
compound="CCC1(C(=O)NS(=O)(=O)c2cccc3ccccc23)CCc2c(Cl)cccc21 (stereo not drawn) [Example I-7]" value="> 5.52"
compound="CCC1(C(=O)NS(=O)(=O)c2ccc(C3CCC3)c3ccccc23)CCc2c(C3CCC3)cccc21 (stereo not drawn) [II-82]" value="≤ 5.00"
compound="COc1cccc2c1CCC2C(=O)NS(=O)(=O)c1cccnc1C#N (stereo not drawn) [III-83]" value="≤ 5.00"
compound="CCC1(C(=O)NS(=O)(=O)c2cccc(Cl)c2COC)CCc2c(Cl)cccc21 (stereo not drawn) [II-57]" value="> 5.52"
compound="O=C(NS(=O)(=O)c1cccc2ccccc12)C1CCCc2c(Cl)ccc(OCCN3CCOCC3)c21 (stereo not drawn) [II-136]" value="5.00 to 5.52"
compound="CCC1(C(=O)NS(=O)(=O)c2ccccc2COC)CCc2c(Cl)cccc21 (stereo not drawn) [II-102]" value="5.00 to 5.52"
compound="COc1ccc(C2CCC2)c2c1C(C(=O)NS(=O)(=O)c1cccn3nccc13)C2 (stereo not drawn) [Example I-136]" value="> 5.52"
compound="O=C(NS(=O)(=O)c1ccccc1F)C1CCc2c(Cl)cccc21 (stereo not drawn) [II-28]" value="5.00 to 5.52"
compound="CCC1(C(=O)NS(=O)(=O)c2ccc(Br)c3ccccc23)CCc2c(Cl)cccc21 (stereo not drawn) [II-76]" value="> 5.52"
compound="COc1ccc(C2CCC2)c2c1[C@H](C(=O)NS(=O)(=O)c1cccn3nccc13)CC2 [Example I-151]" value="5.00 to 5.52"
compound="CC[C@@]1(C(=O)NS(=O)(=O)c2cccc3ccccc23)CCc2c(Cl)cccc21 [Example I-18]" value="> 5.52"
compound="COc1ccc(C(F)(F)F)c2c1[C@H](C(=O)NS(=O)(=O)c1cccc3ccccc13)CC2 [Example I-94]" value="> 5.52"
compound="COc1ccc(C2CCC2)c2c1CCCC2C(=O)NS(=O)(=O)c1cccc2ccccc12 (stereo not drawn) [Example I-33]" value="> 5.52"
compound="COc1cccc2c1CCC2C(=O)NS(=O)(=O)c1c(C)noc1C (stereo not drawn) [III-79]" value="≤ 5.00"
compound="CCC1(C(=O)NS(=O)(=O)c2cccc3nccnc23)CCc2c(Cl)cccc21 (stereo not drawn) [II-105]" value="≤ 5.00"
compound="COc1cccc2c1CCCC2C(=O)NS(=O)(=O)c1ccccc1C (stereo not drawn) [II-8]" value="5.00 to 5.52"

---

Each item that follows carries a reported Emax.
assay_target: F508delCFTR (Homo sapiens, UniProt P13569, DEL508-508)
Construct: expressed in transfected cells; host or cells: CFBE41o- human lung-derived epithelial cells (CFBE41o-F508delCFTR-HRP), doxycycline-inducible
assay_info: Cell Surface Expression-Horse Radish Peroxidase (CSE-HRP) assay, test compound without co-corrector;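 for Emax: percent of on-plate 2 µM positive control corrector response over DMSO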
Type: cell-based
experimental_conditions: maximum at any tested concentration, normalized to positive control, without co-corrector
reported_metric: Emax

molecule="COc1cccc2c1CCC2C(=O)NS(=O)(=O)c1cncc(Br)c1 (stereo not shown)" reported_metric=Emax value="< 50%"
molecule=COc1ccc(C(F)(F)F)c2c1[C@@H](C(=O)NS(=O)(=O)c1cccc3nc(C)ccc13)CC2 reported_metric=Emax value="≥ 150%"
molecule="O=C(NS(=O)(=O)c1cccc2ccccc12)C1(CC2CCOC2)CCc2c(Cl)cccc21 (stereo not shown)" reported_metric=Emax value="50 to 150%"
molecule=COc1ccc(Br)c2c1CC[C@@H]2C(=O)NS(=O)(=O)c1cccc2ccccc12 reported_metric=Emax value="50 to 150%"
molecule=COc1ccc2c(c1)CC[C@@]2(C)C(=O)NS(=O)(=O)c1cccc2ccccc12 reported_metric=Emax value="50 to 150%"
molecule="COc1cccc2c1CCC2C(=O)NS(=O)(=O)c1cc(C)c(N)cc1Cl (stereo not shown)" reported_metric=Emax value="< 50%"
molecule=COc1ccc(OC)c2c1CC[C@@H]2C(=O)NS(=O)(=O)c1cccc2ccccc12 reported_metric=Emax value="50 to 150%"
molecule="CCC1(C(=O)NS(=O)(=O)c2cccc3ccccc23)CCCc2c(OC)cccc21 (stereo not shown)" reported_metric=Emax value="≥ 150%"
molecule="COc1cccc2c1C(C(=O)NS(=O)(=O)c1cccc3ccccc13)CC2(C)C (stereo not shown)" reported_metric=Emax value="≥ 150%"
molecule="COc1cccc2c1CCC2C(=O)NS(=O)(=O)c1c(Cl)cccc1Cl (stereo not shown)" reported_metric=Emax value="< 50%"
molecule="COc1ccc2c(c1OC)CCCC2C(=O)NS(=O)(=O)c1cccc2ccccc12 (stereo not shown)" reported_metric=Emax value="50 to 150%"
molecule="COc1ccc(Br)c2c1C(C(=O)NS(=O)(=O)c1ccc(F)c3ncccc13)CC2 (stereo not shown)" reported_metric=Emax value="≥ 150%"
molecule="COc1ccc(N2CCCC2)c2c1C(C(=O)NS(=O)(=O)c1cccc3ccccc13)CCC2 (stereo not shown)" reported_metric=Emax value="≥ 150%"
molecule="COc1cccc2c1CC(C(=O)NS(=O)(=O)c1cccc3ccccc13)C2 (stereo not shown)" reported_metric=Emax value="50 to 150%"
molecule=COc1ccc(C2CCC2)c2c1[C@H](C(=O)NS(=O)(=O)c1cccc3cnn(C)c13)C2 reported_metric=Emax value="≥ 150%"
molecule="COc1ccc(CC(C)C)c2c1C(C(=O)NS(=O)(=O)c1cccc3ccccc13)CCC2 (stereo not shown)" reported_metric=Emax value="≥ 150%"
molecule=COc1ccc(C2CCC2)c2c1CCC[C@H]2C(=O)NS(=O)(=O)c1cccc2ccccc12 reported_metric=Emax value="≥ 150%"
molecule="O=C(NS(=O)(=O)c1cccc2ccccc12)C1CCCc2c(OC3CCOCC3)ccc(Br)c21 (stereo not shown)" reported_metric=Emax value="< 50%"
molecule="COc1cccc2c1CCC2C(=O)NS(=O)(=O)c1ccc(Cl)cc1[N+](=O)[O-] (stereo not shown)" reported_metric=Emax value="< 50%"
molecule="COc1cccc2c1CCC2C(=O)NS(=O)(=O)c1cc(Cl)ccc1F (stereo not shown)" reported_metric=Emax value="< 50%"
molecule="CC(C)(O)COc1ccc(Br)c2c1CCCC2C(=O)NS(=O)(=O)c1cccc2ccccc12 (stereo not shown)" reported_metric=Emax value="< 50%"
molecule="CCC1(C(=O)NS(=O)(=O)c2cccc3ccccc23)CCc2c(Br)ccc(OC)c21 (stereo not shown)" reported_metric=Emax value="≥ 150%"
molecule="COc1cccc2c1CC(C(=O)NS(=O)(=O)c1ccccc1C)C2 (stereo not shown)" reported_metric=Emax value="< 50%"
molecule="COc1cccc2c1C(C(=O)NS(=O)(=O)c1cccc3ncccc13)CC2(C)C (stereo not shown)" reported_metric=Emax value="≥ 150%"
molecule=COc1ccc(C2CCC2)c2c1[C@@H](C(=O)NS(=O)(=O)c1cccc3ncn(C)c13)CC2 reported_metric=Emax value="≥ 150%"
molecule="O=C(NS(=O)(=O)c1cccc2ccccc12)C1CCc2c(Cl)cccc21 (stereo not shown)" reported_metric=Emax value="≥ 150%"
molecule="COc1ccc(C2CCC2)c2c1C(C(=O)NS(=O)(=O)c1cccc3ccccc13)CCC2 (stereo not shown)" reported_metric=Emax value="≥ 150%"
molecule="COC(=O)c1ccc(OC)c2c1CCC2C(=O)NS(=O)(=O)c1cccc2ccccc12 (stereo not shown)" reported_metric=Emax value="≥ 150%"
molecule="CCC1(C(=O)NS(=O)(=O)c2cccc3c(Br)cccc23)CCc2c(Cl)cccc21 (stereo not shown)" reported_metric=Emax value="50 to 150%"
molecule="O=C(NS(=O)(=O)c1cccc2ccccc12)C1CCCc2cccc(Cl)c21 (stereo not shown)" reported_metric=Emax value="≥ 150%"
molecule="CCOc1ccc(Br)c2c1C(C(=O)NS(=O)(=O)c1cccc3ccccc13)CC2 (stereo not shown)" reported_metric=Emax value="≥ 150%"
molecule=COc1ncc(C2CCC2)c2c1[C@@H](C(=O)NS(=O)(=O)c1cccc3ccccc13)CCC2 reported_metric=Emax value="≥ 150%"
molecule="COc1ccc(-c2ccc(C)cc2F)c2c1CCCC2C(=O)NS(=O)(=O)c1cccc2ccccc12 (stereo not shown)" reported_metric=Emax value="≥ 150%"
molecule="O=C(NS(=O)(=O)c1cccc2ccccc12)C1(CCN2CCC(F)(F)C2)CCc2c(Cl)cccc21 (stereo not shown)" reported_metric=Emax value="50 to 150%"
